Attribution: patent US20260232830A1

tested_on: T1, human EGFR-His antigen (human, UniProt P00533 25-645)
T1 construct: also called hEGFR-His
experimental_details: SPR Biacore 8K, antibody on Protein A chip, 1:1 fit
Catalogue of binders with associated pKd
Give only the number. pKd is defined as minus log10 of concentration in molar units.

Worked examples, 2 binders total:
ZalH3 (antibody, human IgG1, kappa, V domains shown, anti-EGFR zalutumumab variant, human IgG1) VH: QVQLVESGGGVVQPGRSLRLSCAASGFTFSTYGMHWVRQAPGKGLEWVAVIWDDGSYKYYGDSVKGRFTISRDNSKNTLYLQMNSLRAEDTAVYYCARDGLTMVRGVMKDYFDYWGQGTLVTVSS VL: DIQLTQSPSSLSASVGDRVTITCRASQDISSALVWYQQKPGKAPKLLIYDASSLESGVPSRFSGSESGTDFTLTISSLQPEDFATYYCQQFNSYPLTFGGGTKVEIKR : 6.52
ZalH7 (antibody, human IgG1, kappa, V domains shown, anti-EGFR zalutumumab variant, human IgG1) VH: QVQLVESGGGVVQPGRSLRLSCAASGFTFSSYGMHWVRQAPGKGLEWVAVIWEDGSYKYYGDSVKGRFTISRDNSKNTLYLQMNSLRAEDTAVYYCARDGITMVRGVMKDYFDYWGQGTLVTVSS VL: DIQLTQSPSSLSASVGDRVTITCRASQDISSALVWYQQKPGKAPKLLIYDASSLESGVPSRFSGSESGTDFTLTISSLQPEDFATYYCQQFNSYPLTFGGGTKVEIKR : 7.02

Now consider a different binder.
Inquiry: Annotate the binder ZalH13 (antibody, human IgG1, kappa, V domains shown, anti-EGFR zalutumumab variant, human IgG1) VH: QVQLVESGGGVVQPGRSLRLSCAASGFTFSSYAMHWVRQAPGKGLEWVAVIWDDGSYKYYGDSVKGRFTISRDNSKNTLYLQMNSLRAEDTAVYYCARDGITMVRGVMKDYFDYWGQGTLVTVSS VL: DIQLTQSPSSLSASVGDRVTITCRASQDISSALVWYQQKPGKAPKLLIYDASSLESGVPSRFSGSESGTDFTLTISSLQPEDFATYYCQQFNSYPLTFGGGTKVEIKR with its measured pKd.
Reply text: 8.71
